Recorded IC50 for the following compounds
Target: Bcr/Abl fusion protein (Homo sapiens, UniProt P00519)
Sequence (P00519 whole entry, the tested form may be a part): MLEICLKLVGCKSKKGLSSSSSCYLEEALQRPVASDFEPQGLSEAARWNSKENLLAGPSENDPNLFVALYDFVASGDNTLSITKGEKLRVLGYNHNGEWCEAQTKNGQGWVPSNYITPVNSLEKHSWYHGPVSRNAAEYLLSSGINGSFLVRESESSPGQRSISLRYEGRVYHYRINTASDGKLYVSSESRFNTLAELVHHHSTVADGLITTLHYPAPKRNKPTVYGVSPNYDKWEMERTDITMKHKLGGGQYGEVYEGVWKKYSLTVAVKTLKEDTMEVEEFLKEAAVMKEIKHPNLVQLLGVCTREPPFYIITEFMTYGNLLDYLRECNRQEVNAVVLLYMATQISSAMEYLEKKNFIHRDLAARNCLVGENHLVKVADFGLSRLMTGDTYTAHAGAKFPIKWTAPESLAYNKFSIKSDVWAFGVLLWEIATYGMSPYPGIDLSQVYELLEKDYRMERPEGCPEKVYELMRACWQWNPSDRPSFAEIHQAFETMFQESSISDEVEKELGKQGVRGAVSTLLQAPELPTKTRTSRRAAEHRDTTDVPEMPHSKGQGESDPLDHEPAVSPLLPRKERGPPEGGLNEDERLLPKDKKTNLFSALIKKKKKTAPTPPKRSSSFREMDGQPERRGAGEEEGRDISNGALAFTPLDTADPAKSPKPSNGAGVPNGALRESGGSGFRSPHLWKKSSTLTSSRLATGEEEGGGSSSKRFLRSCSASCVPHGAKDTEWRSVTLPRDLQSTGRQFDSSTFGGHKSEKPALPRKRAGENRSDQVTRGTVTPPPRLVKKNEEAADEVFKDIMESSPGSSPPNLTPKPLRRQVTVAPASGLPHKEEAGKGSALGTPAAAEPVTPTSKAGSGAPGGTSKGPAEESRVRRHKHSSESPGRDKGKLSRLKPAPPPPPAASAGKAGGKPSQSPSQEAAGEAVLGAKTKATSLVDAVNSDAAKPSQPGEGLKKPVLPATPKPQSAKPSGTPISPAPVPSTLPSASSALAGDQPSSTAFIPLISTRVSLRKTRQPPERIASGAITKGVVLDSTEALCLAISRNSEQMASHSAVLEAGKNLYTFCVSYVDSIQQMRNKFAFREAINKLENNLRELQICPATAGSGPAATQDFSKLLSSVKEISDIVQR
Sequence (P11274 whole entry, further chain, the tested form may be a part): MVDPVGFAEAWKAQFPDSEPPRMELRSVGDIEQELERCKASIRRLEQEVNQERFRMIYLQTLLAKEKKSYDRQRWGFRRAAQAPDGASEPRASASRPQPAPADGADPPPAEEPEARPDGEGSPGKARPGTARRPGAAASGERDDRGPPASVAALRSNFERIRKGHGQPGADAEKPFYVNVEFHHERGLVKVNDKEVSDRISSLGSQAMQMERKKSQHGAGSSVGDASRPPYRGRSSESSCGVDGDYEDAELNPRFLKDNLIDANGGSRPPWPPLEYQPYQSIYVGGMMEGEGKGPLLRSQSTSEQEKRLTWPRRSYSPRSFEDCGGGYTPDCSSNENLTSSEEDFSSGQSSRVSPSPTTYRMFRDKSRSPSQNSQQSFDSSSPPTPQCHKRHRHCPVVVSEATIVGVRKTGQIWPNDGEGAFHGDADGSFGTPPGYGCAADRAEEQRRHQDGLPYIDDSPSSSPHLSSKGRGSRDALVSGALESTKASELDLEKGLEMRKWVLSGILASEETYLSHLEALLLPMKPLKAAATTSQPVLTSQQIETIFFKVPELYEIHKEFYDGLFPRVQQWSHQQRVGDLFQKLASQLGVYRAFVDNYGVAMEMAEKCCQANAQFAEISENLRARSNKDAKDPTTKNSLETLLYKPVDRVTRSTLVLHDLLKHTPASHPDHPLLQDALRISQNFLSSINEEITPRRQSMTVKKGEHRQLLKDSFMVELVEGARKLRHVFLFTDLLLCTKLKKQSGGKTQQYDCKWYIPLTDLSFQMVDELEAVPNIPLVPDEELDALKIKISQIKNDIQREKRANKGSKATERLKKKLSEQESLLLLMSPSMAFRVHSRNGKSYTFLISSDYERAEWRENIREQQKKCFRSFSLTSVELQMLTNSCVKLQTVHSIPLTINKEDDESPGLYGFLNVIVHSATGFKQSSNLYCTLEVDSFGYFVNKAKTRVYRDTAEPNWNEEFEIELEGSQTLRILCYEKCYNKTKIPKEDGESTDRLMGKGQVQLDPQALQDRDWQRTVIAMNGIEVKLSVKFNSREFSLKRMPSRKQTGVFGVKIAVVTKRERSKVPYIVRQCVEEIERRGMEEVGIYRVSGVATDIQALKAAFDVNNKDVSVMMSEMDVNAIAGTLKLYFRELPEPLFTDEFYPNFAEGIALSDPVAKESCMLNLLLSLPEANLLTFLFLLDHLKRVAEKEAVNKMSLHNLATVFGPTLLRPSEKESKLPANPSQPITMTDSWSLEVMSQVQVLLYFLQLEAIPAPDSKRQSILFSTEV
Experiment: Inhibition of Bcr-Abl (unknown origin) after 60 mins by luminescent kinase assay
experimental-readout: IC50

line-notation: Cc1ccc(-c2ccc(C(=O)N3CCN(C(=O)c4cccc(N(C)C)c4)CC3)cc2)cn1
result: > 500 µM
//
line-notation: Cc1ccc(-c2ccc(C(=O)N3CCN(C(=O)c4cccc(F)c4)CC3)cc2)cn1
result: > 500 µM
//
line-notation: Cc1ccnc(-c2ccc(C(=O)N3CCN(C(=O)c4ccc(C(C)(C)C)cc4)CC3)cc2)c1
result: > 500 µM
//
line-notation: O=C(c1ccc(-c2ccccn2)cc1)N1CCN(C(=O)c2cccc(C(F)(F)F)c2)CC1
result: > 500 µM
//
line-notation: O=C(c1ccc(-c2nccs2)cc1)N1CCN(C(=O)c2ccc(Cl)cc2Cl)CC1
result: > 500 µM
